molecular target: Peptidyl-prolyl cis-trans isomerase FKBP1A (Homo sapiens); assay: Compound was evaluated for inhibitory activity against human FKBP-12 rotamase
Sequence (P62942 whole entry): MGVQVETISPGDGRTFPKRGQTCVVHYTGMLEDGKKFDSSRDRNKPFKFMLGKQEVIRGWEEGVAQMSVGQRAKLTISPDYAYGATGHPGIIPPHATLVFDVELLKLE
pKi: −log10 of the molar value.
assayEndpoint: pKi

Use these answered entries as a reference point.
{"columns": ["compound", "targetOfAssay", "assayEndpoint", "valueReported"],
 "data": [
  ["CCC(C)(C)C(=O)C(=O)N1[C@@H]2CCC[C@H]1C(=O)OCCCOC2=O", "Peptidyl-prolyl cis-trans isomerase FKBP1A (Homo sapiens)", "pKi", 5.00],
  ["CC(C)[C@@H]1CC[C@@H](C)[C@](O)(C(=O)C(=O)N2[C@@H]3CCC[C@H]2C(=O)OCCCOC3=O)C1", "Peptidyl-prolyl cis-trans isomerase FKBP1A (Homo sapiens)", "pKi", 5.09],
  ["COc1cc(C(=O)C(=O)N2[C@@H]3CCC[C@H]2C(=O)OCC(CO[Si](C)(C)C(C)(C)C)COC3=O)cc(OC)c1OC (some centres not stated)", "Peptidyl-prolyl cis-trans isomerase FKBP1A (Homo sapiens)", "pKi", 5.82]
]}

1. COc1cc(C(=O)C(=O)N2[C@@H]3CCC[C@H]2C(=O)OCCCCOC3=O)cc(OC)c1OC
2. CCC(C)(C)C(=O)C(=O)N1[C@@H]2CCC[C@H]1C(=O)OCCCCOC2=O
## Task Which value of pKi is smaller, the one for 1 or the one for 2 ? Refer to your chosen item by its label in the answer.
## Result 2
